FYI, the data here is from PubChem BioAssay.

target: NADPH oxidase 2 (Homo sapiens); test: NOX2-dependent H2O2 signal modulators, primary screen, NOX inhibitor project, cell-based, HEK293-NOX2, PMA-stimulated, Amplex Red fluorescence (AID 1159); details: 45 min, higher = more signal, called active from +8 up or from −8 down; also: test concentration not given here
Calls of active or inactive are those of the source.
readout kind: z-score

>  <compound>
CC(C)c1ccc(NN2C(C(O)c3ccc(N(C)C)cc3)C=CC3C(=O)N(c4ccccc4)C(=O)C32)cc1 (configuration not stated)

>  <readout kind>
z-score

>  <result>
-1.14 (inactive)

$$$$
>  <compound>
COC(=O)[C@@]1(Cc2ccccc2)[C@H]2c3cc(C(=O)N4CCCC4)n(Cc4ccc(C)o4)c3C[C@H]2CN1C(=O)c1ccccc1

>  <readout kind>
z-score

>  <result>
-0.254 (inactive)

$$$$
>  <compound>
COC(=O)[C@@]1(Cc2ccc(OC)cc2)[C@H]2c3cc(C(=O)N4CCCC4)n(Cc4ccccn4)c3C[C@H]2CN1C(=O)c1ccccc1

>  <readout kind>
z-score

>  <result>
0.29 (inactive)

$$$$
>  <compound>
CC1CC/C=C\[C@H]2OC34C=CCN(Cc5ccccc5)C(=O)[C@H]3N(CCCCCO)C(=O)[C@@H]4C2C(=O)O1 (some centres not stated)

>  <readout kind>
z-score

>  <result>
0.852 (inactive)

$$$$
>  <compound>
CCOC(=O)C1=CC[C@@H](c2ccccc2)N(S(=O)(=O)c2ccc(C)cc2)[C@H]1C(=O)OCC

>  <readout kind>
z-score

>  <result>
0.439 (inactive)

$$$$
>  <compound>
COC(=O)[C@@]1(Cc2ccc(OC)cc2)[C@H]2c3cc(C(=O)N4CCCC4)n(CCc4c[nH]c5cc(F)ccc45)c3C[C@H]2CN1C(=O)c1ccccc1

>  <readout kind>
z-score

>  <result>
0.438 (inactive)

$$$$
>  <compound>
CCOC(=O)C[C@H]1[C@H](OC(=O)c2ccccc2-c2ccccc2)[C@@H](NC(=O)Cc2ccc(OC)cc2)c2cc(OCCCO)ccc2N1C(=O)c1ccccc1

>  <readout kind>
z-score

>  <result>
1.02 (inactive)

$$$$

---

experiment: small-molecule microarray binders of probe aXIP, primary screen, biochemical, NeuroSMM set, 635/667 nm fluorescence (AID 1119); details: higher = more signal, called active from +8 up or from −8 down;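 also: probe is the protein aXip251-270 applied at 1 µg/mL to compound-printed slides; binding of probe to printed compounds measured as 667 nm fluorescence plus signal to noise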
Reported composite Z-score is given for each of the following compounds.

>  <compound>
CCOC(=O)C[C@H]1[C@H](OC(=O)c2ccc(-c3ccccc3)cc2)[C@@H](NC(=O)c2ccc(-c3ccccc3)cc2)c2cc(OCCCO)ccc2N1C(=O)Cc1ccc(OC)cc1

>  <composite Z-score>
-0.576

$$$$
>  <compound>
COc1c(C)cc(-c2cc3c(c(-c4ccc(Oc5ccccc5)cc4)n2)[Si](C(C)C)(C(C)C)OC3)cc1C

>  <composite Z-score>
-0.591

$$$$
>  <compound>
COC(=O)[C@@]1(Cc2ccc(OC)cc2)[C@H]2c3cc(C(=O)N4CCCC4)n(CCc4c[nH]c5cc(F)ccc45)c3C[C@H]2CN1C(=O)c1ccccc1

>  <composite Z-score>
-0.0378

$$$$
>  <compound>
COC(=O)[C@@]1(Cc2ccc(OC)cc2)[C@H]2c3cc(C(=O)N4CCCC4)n(Cc4ccccn4)c3C[C@H]2CN1C(=O)c1ccccc1

>  <composite Z-score>
-0.832

$$$$
>  <compound>
O=c1cccc(CCc2ccccc2)o1

>  <composite Z-score>
0.338

$$$$
>  <compound>
COC(=O)[C@@]1(Cc2ccccc2N=[N+]=[N-])COC(c2ccc(OCCCO)cc2)=N1

>  <composite Z-score>
1.07

$$$$
>  <compound>
CCCCCCCCCCC(O)C1C=CC2C(=O)N(Cc3ccccc3)C(=O)C2N1n1cnnc1 (stereo not given)

>  <composite Z-score>
0.797

$$$$
>  <compound>
COC(=O)[C@@]1(Cc2ccc(OC)cc2)[C@H]2c3cc(C(=O)N4CCCC4)n(Cc4cc(F)cc5c4OCOC5)c3C[C@H]2CN1C(=O)c1ccccc1

>  <composite Z-score>
-0.0345

$$$$
>  <compound>
CCOC(=O)[C@H]1C[C@H]2O[C@@]23C[C@H]1C(=O)N1CCCC1[C@@H]3O[Si](C)(C)C(C)(C)C (stereo not given in full)

>  <composite Z-score>
0.545

$$$$
>  <compound>
O=C1O[C@H](c2ccccc2)[C@H](c2ccccc2)N2[C@H]1[C@@H](C(=O)O)[C@]1(C(=O)Nc3ccc(C#CC4(O)CCCCCC4)cc31)[C@H]2c1ccc(OCCO)cc1

>  <composite Z-score>
-0.0503

$$$$
>  <compound>
COCC(=C=CC[C@H](O)c1ccc(OCCO)cc1)C[C@H](O)c1cc(Cl)cc(Cl)c1O

>  <composite Z-score>
-0.566

$$$$
>  <compound>
CN1C(=O)C2C=CC(C(O)c3ccccn3)N(Nc3ccccc3)C2C1=O (stereo not given)

>  <composite Z-score>
0.0956

$$$$
>  <compound>
CC(=O)NCCCC[C@@H]1NC(=O)[C@@H]2C[C@H](C(=O)NCCCCCCNC(=O)CS)[C@H](c3ccc(O)cc3)N2C1=O

>  <composite Z-score>
-0.202

$$$$
>  <compound>
C[N+](C)(C)CCCCCCNC(=O)[C@H]1C[C@H]2C(=O)N3CCC[C@H]3C(=O)N2[C@H]1c1ccc(O)cc1

>  <composite Z-score>
0.287

$$$$
>  <compound>
COCCCNC(=O)[C@@]1(CCC(=O)OC(C)(C)C)N=C(c2ccc(OCCCO)cc2)O[C@H]1c1ccccc1CN=[N+]=[N-]

>  <composite Z-score>
-0.371

$$$$

---

tested on: Sonic hedgehog protein (Shh); assay: small-molecule binders of Shh protein, primary screen, biochemical, small-molecule microarray, 635/667 nm fluorescence (AID 1151); conditions: small-molecule microarray binding, 635 nm fluorescence; higher = more signal;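 also: Shh protein binding to compounds spotted on small-molecule microarray slides; score combines spot fluorescence intensity with signal-to-noise across triplicate slides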

>  <compound>
Cc1ccc([C@H]2[C@H](C(=O)O)[C@H](Sc3ccccc3)[C@@H](C(C)C)N2S(=O)(=O)c2ccc(C)cc2)cc1

>  <composite z-score>
-0.861

$$$$
>  <compound>
C=CCC(OC(C)=O)[C@@H]1[C@@H](N(Cc2cc3ccccc3o2)C(=O)c2ccc(C)cc2)c2cc(OCCCO)ccc2N1C(=O)c1ccc2ccccc2c1 (stereo partly specified)

>  <composite z-score>
0.218

$$$$
>  <compound>
O=C1N(CCS(=O)(=O)c2ccccc2)Cc2ccccc2C[C@]12N=C(c1ccc(OCCCO)cc1)O[C@@H]2c1ccccc1

>  <composite z-score>
1.51

$$$$
>  <compound>
CC(C)C(=C=CC[C@H](O)c1ccccc1OCCO)C[C@H](O)c1ccccn1

>  <composite z-score>
1.63

$$$$
>  <compound>
COCCOC(=O)N1C(=O)[C@@]2(c3cc(C#CCC(C(=O)OC)C(=O)OC)ccc31)[C@H](C(=O)N1CCN(c3ncccn3)CC1)[C@H]1C(=O)O[C@H](c3ccccc3)[C@H](c3ccccc3)N1[C@@H]2c1ccc(OCCO)cc1

>  <composite z-score>
1.3

$$$$
>  <compound>
CC(C)C(O)C1C=CC2C(=O)N(c3ccccc3)C(=O)C2N1Nc1ccc(C#N)cc1 (stereo unspecified)

>  <composite z-score>
0.0011

$$$$
>  <compound>
COc1cc2c(cc1OC)CN(C(=O)[C@@H]1[C@H]3C(=O)O[C@H](c4ccccc4)[C@H](c4ccccc4)N3[C@H](c3ccccc3OCCO)[C@@]13C(=O)Nc1ccc(C#CCNC(N)=O)cc13)CC2

>  <composite z-score>
1.38

$$$$
>  <compound>
COc1ccc(C(O)C2C=CC3C(=O)NC(=O)C3N2Nc2ccccn2)cc1OCc1ccccc1 (stereo unspecified)

>  <composite z-score>
0.0157

$$$$
>  <compound>
COC(=O)c1c(CC[C@@H](CO)NC(=O)N[C@@H](Cc2ccccc2)Cn2cc(C3(O)CCCCC3)nn2)oc(C(C)=O)c1C(=O)OC

>  <composite z-score>
1.7

$$$$
>  <compound>
CC(C)CNC(=O)[C@@H]1c2ccccc2C(=O)N(Cc2cc(C(F)(F)F)cc(C(F)(F)F)c2)[C@H]1c1ccc(CO)cc1

>  <composite z-score>
-0.22

$$$$
>  <compound>
COCCOC(=O)N1C(=O)[C@@]2(c3cc(C#CCCO)ccc31)[C@H](c1ccccc1OCCO)N1[C@H](c3ccccc3)[C@H](c3ccccc3)OC(=O)[C@H]1[C@@H]2C(=O)N1CCN(c2ncccn2)CC1

>  <composite z-score>
1.37

$$$$
>  <compound>
CC(C)(C)OC(=O)CC[C@]1(C(=O)N2CCCCC2)N=C(c2ccc(OCCCO)cc2)O[C@H]1c1ccccc1N=[N+]=[N-]

>  <composite z-score>
0.837

$$$$
>  <compound>
O=C(CS)NCCCCCCNC(=O)[C@@H]1C[C@@H]2C(=O)N3CCC[C@H]3C(=O)N2[C@@H]1c1ccc(O)cc1

>  <composite z-score>
0.881

$$$$
>  <compound>
COCC(=C=CC[C@H](O)c1ccc(OCCO)cc1)C[C@H](O)c1cc(Cl)cc(Cl)c1O

>  <composite z-score>
2.26

$$$$
>  <compound>
CC(C)(C)N1CC=CC23O[C@@H]4C=CCOC(=O)[C@@H]4[C@H]2C(=O)N(CCCCCO)[C@@H]3C1=O (stereo partly specified)

>  <composite z-score>
-0.15

$$$$
>  <compound>
COC(=O)c1ccc(C(O)C2C=CC3C(=O)N(C)C(=O)C3N2NC(=O)OC(C)(C)C)o1 (stereo unspecified)

>  <composite z-score>
0.112

$$$$
>  <compound>
COC(=O)[C@@]1(Cc2ccccc2)[C@H]2c3cc(C(=O)N4CCCC4)n(C)c3C[C@H]2CN1C(=O)c1ccccc1

>  <composite z-score>
-0.157

$$$$
>  <compound>
COc1cccc(C(=O)O[C@H]2CC[C@]3(C)C4=C(CCC3C2(C)C)[C@]2(C)CC[C@H]([C@H](C)CCCC(C)C)[C@@]2(C)CC4)c1 (stereo partly specified)

>  <composite z-score>
0.425

$$$$
>  <compound>
COc1ccc(C#Cc2ccc3c(c2)[C@]2(C(=O)N3)[C@H](C(=O)NC[C@H](O)c3ccccc3)[C@H]3C(=O)O[C@H](c4ccccc4)[C@H](c4ccccc4)N3[C@@H]2c2ccccc2OCCO)cc1

>  <composite z-score>
1.68

$$$$
>  <compound>
CS(=O)(=O)CCOC(=O)C1=CC(c2ccc(CO)cc2)=CC(C2CC2)N(Cc2cc3c(cc2Br)OCO3)C=C1C(=O)OCCS(C)(=O)=O (stereo unspecified)

>  <composite z-score>
0.595

$$$$
>  <compound>
COCCOC(=O)N1C(=O)[C@@]2(c3cc(C#CCC(C(=O)OC)C(=O)OC)ccc31)[C@H](c1ccccc1OCCO)N1[C@H](c3ccccc3)[C@H](c3ccccc3)OC(=O)[C@H]1[C@@H]2C(N)=O

>  <composite z-score>
1.52

$$$$
>  <compound>
C=CCOC(=O)[C@H]1[C@@H]2C(=O)O[C@@H](c3ccccc3)[C@@H](c3ccccc3)N2[C@@H](c2ccc(OCCOC(=O)[C@@H]3C[C@@H]4C(=O)NCC(=O)N4[C@@H]3c3ccc(O)cc3)cc2)[C@]12C(=O)Nc1ccccc12

>  <composite z-score>
2.28

$$$$
>  <compound>
COc1cc2c(cc1O)C(C)N(Cc1cccc(OC(F)(F)F)c1)CC2 (stereo unspecified)

>  <composite z-score>
0.204

$$$$
>  <compound>
Cc1ccc(S[C@]2(C(=O)NCCN3CCOCC3)CC(=O)N(Cc3cc(C(F)(F)F)cc(C(F)(F)F)c3)[C@@H]2c2ccc(CO)cc2I)cc1

>  <composite z-score>
-0.4

$$$$
>  <compound>
COC(=O)[C@@]1(Cc2ccccc2)[C@H]2c3cc(C(=O)N(C)C)n(Cc4c(-c5ccccc5)noc4C)c3C[C@H]2CN1C(=O)c1ccccc1

>  <composite z-score>
-0.141

$$$$
>  <compound>
O=C1O[C@@H](c2ccccc2)[C@@H](c2ccccc2)N2[C@@H](c3ccc(OCCO)cc3)[C@]3(C(=O)Nc4ccc(C#CC5=CCCCC5)cc43)[C@@H](C(=O)O)[C@H]12

>  <composite z-score>
0.658

$$$$
